# Test system: RAW 264.7 cells
# assayInfo: Cell viability (CellTiter 96 AQueous One) of LPS-challenged RAW 264.7 cells
# Type: cell-based, mouse
# Parameters: key: NS=not significant; a “+” sign=anti-inflammatory or increased cell numbers; a “−” sign=cell toxicity or pro-inflammatory
# details: 10 μM
metric: Viability

Some molecules with known Viability results, for comparison:
CC(N1Cc2ccccc2C1=O)C12CC3CC(CC(C3)C1)C2 (stereo not drawn) [Compound 71]	NS
CC1(C)[C@@H]2CC[C@@]1(C)[C@@H](N1C(=O)C3C4C=CC(C4)C3C1=O)C2 (stereo partly drawn) [Compound 116]	−
O=C1c2ccccc2C(=O)N1c1nc2ccc(C(F)(F)F)cc2s1 [Compound 59]	NS
FC(F)(F)c1ccc(/N=C2/c3ccccc3CN2c2ccc(C(F)(F)F)cn2)nc1 [Compound 66]	NS
FC(F)(F)c1ccnc(/N=C2/c3ccccc3CN2c2cc(C(F)(F)F)ccn2)c1 [Compound 67]	NS
Nc1cccc2c1CN(C13CC4CC(CC(O)(C4)C1)C3)C2=O [Compound 88]	NS
O=C1c2cccc([N+](=O)[O-])c2CN1C12CC3CC(CC(O)(C3)C1)C2 [Compound 87]	NS
O=C1c2cccc([N+](=O)[O-])c2CN1C12CC3CC(CC(C3)C1)C2 [Compound 76]	NS

Attention now shifts to the item below.
Query :: So what does the record say about Viability for O=C1c2ccccc2CN1C12CC3CC(CC1C3)C2 [Compound 73] ?
Result :: NS

---

# System: RAW 264.7 cells
# assayInfo: Cell viability (CellTiter 96 AQueous One) of LPS-challenged RAW 264.7 cells
# Type: cell-based, mouse
# Design: key: NS=not significant; a “+” sign=anti-inflammatory or increased cell numbers; a “−” sign=cell toxicity or pro-inflammatory
# details: 30 μM
metric: Viability

Some compounds with known Viability results, for comparison:
O=C1CCC(N2Cc3ccccc3C2=O)C(=O)N1CN1C(=S)c2ccccc2C1=S (centres unmarked) [Compound 51]	−
Nc1cccc2c1CN([C@@H]1C[C@H]3CC[C@@H]1C3)C2=O [Compound 100]	NS
CC(N1Cc2ccccc2C1=S)C12CC3CC(CC(C3)C1)C2 (centres unmarked) [Compound 74]	NS
O=C1CCC(N2C(=O)c3cccc([N+](=O)[O-])c3C2=O)C(=O)N1 (centres unmarked) [Compound 5]	NS

Query :: So what does the record say about Viability for O=C1c2cccc([N+](=O)[O-])c2CN1C12CC3CC(CC1C3)C2 [Compound 84] ?
Result :: NS

Query :: So what does the record say about Viability for O=C1c2cccc([N+](=O)[O-])c2CN1C12CC3CC(CC(O)(C3)C1)C2 [Compound 87] ?
Result :: NS

Query :: So what does the record say about Viability for C[C@@H]1[C@@H](N2Cc3c(N)cccc3C2=O)C[C@H]2C[C@@H]1C2(C)C [Compound 93] ?
Result :: NS

Query :: So what does the record say about Viability for C[C@@H]1[C@@H](N2Cc3c(cccc3[N+](=O)[O-])C2=O)C[C@H]2C[C@@H]1C2(C)C [Compound 92] ?
Result :: −

---

# Test system: RAW 264.7 cells
# assayInfo: Cell viability (CellTiter 96 AQueous One) of LPS-challenged RAW 264.7 cells
# Format: cell-based, mouse
# Parameters: key: NS=not significant; a “+” sign=anti-inflammatory or increased cell numbers; a “−” sign=cell toxicity or pro-inflammatory
# details: 10 μM
metric: Viability

C[C@H]1[C@H](N2Cc3c(cccc3[N+](=O)[O-])C2=O)C[C@@H]2C[C@H]1C2(C)C	NS
C[C@@H]1[C@@H](N2Cc3c(cccc3[N+](=O)[O-])C2=O)C[C@H]2C[C@@H]1C2(C)C	−
Nc1cccc2c1CN(C1CCC(=O)NC1=O)C2=S (stereo not shown)	−
O=C1CCC(N2C(=O)c3cccnc3C2=O)C(=O)N1 (stereo not shown)	NS
O=C1c2cccc([N+](=O)[O-])c2CN1CC12CC3CC(CC(C3)C1)C2	NS

Query :: So what does the record say about Viability for `O=C1c2cccc([N+](=O)[O-])c2CN1[C@H]1C[C@H]2CC[C@@H]1C2` ?
Result :: −

Query :: So what does the record say about Viability for CC1(C)[C@@H]2CC[C@]1(C)[C@@H](N1C(=O)C3CC=CCC3C1=O)C2 (stereo partly shown) ?
Result :: −

Query :: So what does the record say about Viability for O=C1CCCC(=O)N1CN1C(=O)CCC(N2Cc3ccccc3C2=O)C1=O (stereo not shown) ?
Result :: NS

Query :: So what does the record say about Viability for `Nc1cccc2c1CN([C@H]1C[C@H]3CC[C@@H]1C3)C2=O` ?
Result :: NS
